Biological target: Proteasome subunit beta (Trypanosoma cruzi)
Assay: Trypanosoma cruzi proteasome chymotrypsin-like activity (TcProtChymo) assay. Further: in the data most compounds retested in dose-response had high values.
Type: functional
Design: scale not given: direction of the effect not stated beside the values
Conditions: 9.37 µM
Give measured Percent Effect for each item. Keep answers brief.
Write down the numeric answer in % and omit the unit.

Asked: Form field: Percent Effect recorded for O=C(NCc1ccoc1)NC1CCCN(c2ncccn2)C1 (configuration not stated) with Proteasome subunit beta (Trypanosoma cruzi) (enter value)
Given back: 15.8

Asked: Form field: Percent Effect recorded for Cc1ccsc1CN(C)Cc1nc2c(cnn2C)c(=O)[nH]1 with Proteasome subunit beta (Trypanosoma cruzi) (enter value)
Given back: 10.7

Asked: Form field: Percent Effect recorded for c1cn2c(n1)CN(CC1CC1)CC(CN1CCOCC1)C2 (configuration not stated) with Proteasome subunit beta (Trypanosoma cruzi) (enter value)
Given back: 11

Asked: Form field: Percent Effect recorded for O=C(NCCN1CCOCC1)NCC(O)c1cccc(F)c1 (configuration not stated) with Proteasome subunit beta (Trypanosoma cruzi) (enter value)
Given back: 4.68

Asked: Form field: Percent Effect recorded for COc1ccc(C2=CCN(C(=O)CN(C)Cc3ccoc3)CC2)cc1 with Proteasome subunit beta (Trypanosoma cruzi) (enter value)
Given back: 10.4

Asked: Form field: Percent Effect recorded for CC(C)N1CCOCC2(CN(Cc3nccs3)CCO2)C1 (configuration not stated) with Proteasome subunit beta (Trypanosoma cruzi) (enter value)
Given back: 16.7

Asked: Form field: Percent Effect recorded for Cc1cccc(NC2CCN(C(=O)Nc3cc(C)on3)CC2)n1 with Proteasome subunit beta (Trypanosoma cruzi) (enter value)
Given back: 1.39

Asked: Form field: Percent Effect recorded for Cc1ccccc1OCCC(=O)OC(C)C(=O)Nc1sccc1C(N)=O (configuration not stated) with Proteasome subunit beta (Trypanosoma cruzi) (enter value)
Given back: 8.33

Asked: Form field: Percent Effect recorded for O=C(c1cccc(N2CCCC2=O)c1)N1CCCC(n2cncn2)C1 (configuration not stated) with Proteasome subunit beta (Trypanosoma cruzi) (enter value)
Given back: -0.18

Asked: Form field: Percent Effect recorded for COc1ccc(NC(=O)c2ccc[nH]2)c(N2CCN(C(C)=O)CC2)n1 with Proteasome subunit beta (Trypanosoma cruzi) (enter value)
Given back: 7.18

Asked: Form field: Percent Effect recorded for Cc1nc(C)n(CC2CCCN2Cc2nc(C3CC3)no2)n1 (configuration not stated) with Proteasome subunit beta (Trypanosoma cruzi) (enter value)
Given back: 1.34

Asked: Form field: Percent Effect recorded for CN(Cc1ccco1)Cc1cncc2c1CCN(c1ncccn1)C2 with Proteasome subunit beta (Trypanosoma cruzi) (enter value)
Given back: 14.9

Asked: Form field: Percent Effect recorded for Cn1cccc1C(=O)N1CCc2ncc(Cn3cccn3)n2CC1 with Proteasome subunit beta (Trypanosoma cruzi) (enter value)
Given back: 0.513

Asked: Form field: Percent Effect recorded for c1ccc(OCCCN2CCN(c3ccc4nncn4n3)CC2)cc1 with Proteasome subunit beta (Trypanosoma cruzi) (enter value)
Given back: 17.6

Asked: Form field: Percent Effect recorded for O=C(c1cccs1)N1C[C@H]2CC[C@@]3(N=C(c4ccccc4)NC3=O)[C@H]2C1 with Proteasome subunit beta (Trypanosoma cruzi) (enter value)
Given back: 13.3

Asked: Form field: Percent Effect recorded for CC[C@@H]1N(Cc2ccsc2)CCC[C@]12CCC(=O)N2C with Proteasome subunit beta (Trypanosoma cruzi) (enter value)
Given back: 2.66

Asked: Form field: Percent Effect recorded for Cc1noc(C2CCN(C(=O)CCNc3ncccn3)CC2)n1 with Proteasome subunit beta (Trypanosoma cruzi) (enter value)
Given back: 9.98

Asked: Form field: Percent Effect recorded for CCOC1CCCN(C(=O)NCCc2ccn(-c3ccccc3)n2)C1 (configuration not stated) with Proteasome subunit beta (Trypanosoma cruzi) (enter value)
Given back: 12.1

Asked: Form field: Percent Effect recorded for CCOC(=O)[C@]12CCCN(Cc3nccs3)C[C@H]1CN(C(C)=O)C2 with Proteasome subunit beta (Trypanosoma cruzi) (enter value)
Given back: 15.7

Asked: Form field: Percent Effect recorded for OC(CN1CCN(Cc2ccc(F)cc2)CC1)C1CC1 (configuration not stated) with Proteasome subunit beta (Trypanosoma cruzi) (enter value)
Given back: 4.61

Asked: Form field: Percent Effect recorded for NCc1cn(-c2ccccc2C(=O)NCc2ccccc2)cn1 with Proteasome subunit beta (Trypanosoma cruzi) (enter value)
Given back: 10.2

Asked: Form field: Percent Effect recorded for CC(C)N1CCC(CNCc2c[nH]nc2C(C)(C)C)C1 (configuration not stated) with Proteasome subunit beta (Trypanosoma cruzi) (enter value)
Given back: 17.1

Asked: Form field: Percent Effect recorded for O=C(CCn1cccn1)N1C[C@@H]2CC[C@H](C1)N(Cc1ccccn1)C2=O with Proteasome subunit beta (Trypanosoma cruzi) (enter value)
Given back: 1.72

Asked: Form field: Percent Effect recorded for CSCC(=O)N1CCCC(n2ccnc2C(C)C)C1 (configuration not stated) with Proteasome subunit beta (Trypanosoma cruzi) (enter value)
Given back: 6.01

Asked: Form field: Percent Effect recorded for COCC(=O)N1CCC2(CC1)CC(CC(=O)NC1CC1)c1ccccc12 (configuration not stated) with Proteasome subunit beta (Trypanosoma cruzi) (enter value)
Given back: -0.0883

Asked: Form field: Percent Effect recorded for CCc1nnc(CNCC2CCN(CC(O)c3ccccc3)CC2)o1 (configuration not stated) with Proteasome subunit beta (Trypanosoma cruzi) (enter value)
Given back: 11.5

Asked: Form field: Percent Effect recorded for NCC1Cn2nnc(-c3cccc(F)c3)c2CO1 (configuration not stated) with Proteasome subunit beta (Trypanosoma cruzi) (enter value)
Given back: 7.99

Asked: Form field: Percent Effect recorded for CN(Cc1ccco1)C(=O)CN1CCCCC1Cn1cccn1 (configuration not stated) with Proteasome subunit beta (Trypanosoma cruzi) (enter value)
Given back: 17.1

Asked: Form field: Percent Effect recorded for O=C(CO)N1CCc2onc(Cn3cccn3)c2C1 with Proteasome subunit beta (Trypanosoma cruzi) (enter value)
Given back: 7.5

Asked: Form field: Percent Effect recorded for CCC(CC)C(=O)N1CCC2(C1)CN(c1ccccc1)C(=O)CN2C (configuration not stated) with Proteasome subunit beta (Trypanosoma cruzi) (enter value)
Given back: 14.7

Asked: Form field: Percent Effect recorded for Cc1ccc(CN2CCC3(CC(C(=O)NCC4CC4)=NO3)C2)cc1C (configuration not stated) with Proteasome subunit beta (Trypanosoma cruzi) (enter value)
Given back: 0.684

Asked: Form field: Percent Effect recorded for Cc1nn(C)c2c(NCc3ccccc3F)nc(C3CC3)nc12 with Proteasome subunit beta (Trypanosoma cruzi) (enter value)
Given back: 20.6

Asked: Form field: Percent Effect recorded for CCc1nccn1C1CCCN(C(=O)c2cnn(C)c2C2CC2)C1 (configuration not stated) with Proteasome subunit beta (Trypanosoma cruzi) (enter value)
Given back: 6.49

Asked: Form field: Percent Effect recorded for CN1CCN(C(=O)c2nc3c(o2)CN(C(=O)c2cccnc2)C3)CC1 with Proteasome subunit beta (Trypanosoma cruzi) (enter value)
Given back: 14

Asked: Form field: Percent Effect recorded for COc1ccc(F)cc1S(=O)(=O)NCC(c1cccn1C)N(C)C (configuration not stated) with Proteasome subunit beta (Trypanosoma cruzi) (enter value)
Given back: 11.5

Asked: Form field: Percent Effect recorded for Cc1cc(CN(C)C(=O)NCc2cccc(N3CCCC3=O)c2)no1 with Proteasome subunit beta (Trypanosoma cruzi) (enter value)
Given back: -4.5

Asked: Form field: Percent Effect recorded for O=C(c1ccco1)N1C[C@H]2CCCN(CC3CCOCC3)[C@H]2C1 with Proteasome subunit beta (Trypanosoma cruzi) (enter value)
Given back: 11.9

----------
Biological target: Tyrosyl-tRNA synthetase, putative (Trypanosoma cruzi (strain CL Brener))
Sequence (whole entry): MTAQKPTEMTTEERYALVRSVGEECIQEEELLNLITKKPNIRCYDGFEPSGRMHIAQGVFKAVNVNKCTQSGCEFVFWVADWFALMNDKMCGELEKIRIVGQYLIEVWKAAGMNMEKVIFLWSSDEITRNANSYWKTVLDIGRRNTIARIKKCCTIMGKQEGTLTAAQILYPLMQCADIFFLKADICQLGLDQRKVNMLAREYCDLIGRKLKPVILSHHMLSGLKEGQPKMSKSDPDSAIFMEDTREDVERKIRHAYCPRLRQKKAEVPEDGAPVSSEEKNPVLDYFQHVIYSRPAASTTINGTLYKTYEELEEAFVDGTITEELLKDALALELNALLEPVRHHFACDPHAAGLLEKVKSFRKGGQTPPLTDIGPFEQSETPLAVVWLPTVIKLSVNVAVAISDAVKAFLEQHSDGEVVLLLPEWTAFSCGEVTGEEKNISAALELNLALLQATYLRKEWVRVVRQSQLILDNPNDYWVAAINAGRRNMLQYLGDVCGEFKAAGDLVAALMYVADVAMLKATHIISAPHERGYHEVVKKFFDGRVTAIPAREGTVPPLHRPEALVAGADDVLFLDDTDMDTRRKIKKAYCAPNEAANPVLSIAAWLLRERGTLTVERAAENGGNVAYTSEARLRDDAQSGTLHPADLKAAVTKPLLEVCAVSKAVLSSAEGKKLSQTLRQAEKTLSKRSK
Experiment: Trypanosoma cruzi tyrosyl tRNA synthetase (TcYRS) SOP
Assay type: functional
Design: scale not given: direction of the effect not stated beside the values
Conditions: 30 µM
Percent Effect vs 20%: at or above is fulfilled, below is not fulfilled.

Asked: Given Cc1noc2ncc(C(=O)N3CCCC3c3ccncc3)cc12 (configuration not stated) , state whether its Percent Effect is at least 20%.
Given back: fulfilled

Asked: Given Cc1ncc2c(n1)CN(CC(=O)Nc1ccncc1)CC2 , state whether its Percent Effect is at least 20%.
Given back: fulfilled

Asked: Given CCS(=O)(=O)c1ccc(N2CCC(NC(=O)CCC(C)C)CC2)cc1 , state whether its Percent Effect is at least 20%.
Given back: not fulfilled

Asked: Given CCN1CCN(CC(O)c2ccc(OC(F)(F)F)cc2)CC1 (configuration not stated) , state whether its Percent Effect is at least 20%.
Given back: not fulfilled

Asked: Given CC(C)(C)c1nnc(CN2CCOC(Cn3cccn3)C2)o1 (configuration not stated) , state whether its Percent Effect is at least 20%.
Given back: not fulfilled

Asked: Given COCC(C)N(C)C(=O)c1nc(S(C)(=O)=O)n2ccccc12 (configuration not stated) , state whether its Percent Effect is at least 20%.
Given back: not fulfilled

Asked: Given Cc1ccc2cc(C(=O)NCCn3nc4ccccn4c3=O)[nH]c2c1 , state whether its Percent Effect is at least 20%.
Given back: not fulfilled

Asked: Given c1cc(CN2CCCC(c3noc(C4CC4)n3)C2)no1 (configuration not stated) , state whether its Percent Effect is at least 20%.
Given back: not fulfilled

Asked: Given C[C@@H]1CN(C2(C(=O)N3CCCCCC3)Cc3ccccc3C2)C[C@H](C)O1 , state whether its Percent Effect is at least 20%.
Given back: not fulfilled

Asked: Given CCc1nc(C2CCCN2C(=O)C2=COCC2)no1 (configuration not stated) , state whether its Percent Effect is at least 20%.
Given back: not fulfilled

Asked: Given Cc1cc(C)c(OCC(=O)NS(=O)(=O)c2cccnc2)c(C)c1 , state whether its Percent Effect is at least 20%.
Given back: fulfilled

Asked: Given Cc1c[nH]c(CN(C)C(=O)c2cccc(CCC(C)(C)O)c2)n1 , state whether its Percent Effect is at least 20%.
Given back: not fulfilled

Asked: Given NC(=O)CSCC(=O)N1CCc2cc(Cl)cc(Cl)c2C1 , state whether its Percent Effect is at least 20%.
Given back: not fulfilled

Asked: Given CC(C)CN1CCC(NC(=O)c2ccc(F)cc2I)CC1 , state whether its Percent Effect is at least 20%.
Given back: not fulfilled

Asked: Given CN1CC(=O)N(c2ccsc2)CC12CCN(S(C)(=O)=O)C2 (configuration not stated) , state whether its Percent Effect is at least 20%.
Given back: not fulfilled

Asked: Given Cn1ccc(C(=O)N2CCC(Cc3cnc4[nH]ccc4c3)CC2)n1 , state whether its Percent Effect is at least 20%.
Given back: not fulfilled

Asked: Given O=C(NCc1nnc2n1CCCC2)N(Cc1ccccc1F)C1CC1 , state whether its Percent Effect is at least 20%.
Given back: not fulfilled

Asked: Given CCC(CC)C(CNC(=O)Nc1cc(C)nn1C)N1CCOCC1 (configuration not stated) , state whether its Percent Effect is at least 20%.
Given back: not fulfilled

Asked: Given Cc1nccc(-c2cccc(NCC(=O)N3CCc4sccc4C3)c2)n1 , state whether its Percent Effect is at least 20%.
Given back: fulfilled

Asked: Given c1cnc(NCc2cncc3c2CCN(Cc2cccs2)C3)nc1 , state whether its Percent Effect is at least 20%.
Given back: not fulfilled

Asked: Given COc1ccc(CN2C[C@H]3CN(c4ccsc4)C(=O)[C@H]3C2)cc1 , state whether its Percent Effect is at least 20%.
Given back: not fulfilled

Asked: Given Cc1ncnc2c1CCN(Cc1ccc3c(c1)OCO3)CC2 , state whether its Percent Effect is at least 20%.
Given back: not fulfilled

Asked: Given CCn1ncc(Br)c1CN(C)S(=O)(=O)c1ccc(C)cc1 , state whether its Percent Effect is at least 20%.
Given back: not fulfilled

Asked: Given Cn1cnc2c1CCN(CCS(=O)(=O)c1ccccc1)C2 , state whether its Percent Effect is at least 20%.
Given back: not fulfilled

Asked: Given CNC(=O)COc1ccc(CNCc2ccc(F)cc2F)cc1 , state whether its Percent Effect is at least 20%.
Given back: not fulfilled

Asked: Given CCCS(=O)(=O)N1CCN(c2cc(-n3nc(C)cc3C)nc(C)n2)CC1 , state whether its Percent Effect is at least 20%.
Given back: not fulfilled

Asked: Given Cc1ccc(CC(=O)N2CCc3nnc(N(C)C)cc3C2)cn1 , state whether its Percent Effect is at least 20%.
Given back: not fulfilled

Asked: Given O=C1COC2(COCCN(Cc3ccsc3)C2)CN1c1ccc(F)cc1 (configuration not stated) , state whether its Percent Effect is at least 20%.
Given back: not fulfilled

Asked: Given COCC1COCCC12CCN(C(=O)CCOc1ccccc1)CC2 (configuration not stated) , state whether its Percent Effect is at least 20%.
Given back: not fulfilled

Asked: Given CC(C)NC(=O)c1nnn(-c2cccc(C(F)(F)F)c2)c1N , state whether its Percent Effect is at least 20%.
Given back: not fulfilled

Asked: Given O=C1CCC2(CCCN(c3ncc(F)cn3)CC2)N1CC1CC1 (configuration not stated) , state whether its Percent Effect is at least 20%.
Given back: not fulfilled

Asked: Given CC(C)N1CCO[C@H]2CN(C(=O)c3ccc(N(C)C)cc3)C[C@H]21 , state whether its Percent Effect is at least 20%.
Given back: not fulfilled

Asked: Given Cc1ccccc1CSc1nc(N)cc(N2C[C@H](O)[C@@H](N(C)C)C2)n1 , state whether its Percent Effect is at least 20%.
Given back: not fulfilled

Asked: Given CCC(=O)N1CCN(C(=O)CCn2cccn2)CC1 , state whether its Percent Effect is at least 20%.
Given back: fulfilled

Asked: Given COc1cc(CNCc2ccc(C(C)O)cc2)cc2c1OCO2 (configuration not stated) , state whether its Percent Effect is at least 20%.
Given back: fulfilled
